# System: hard fouling
# run description: Raft panel static immersion test of antifouling paints: hard fouling
# Parameters: key: G: Not present; Some light slime; F: Overall covered
# settings: model coating 10B: 8% of compound as only biocide; Dutch harbor, sea water
assay endpoint: Performance (1 yr immersed) Hard fouling

// worked examples, Performance (1 yr immersed) Hard fouling included
# compound, result
records = [
    ("COC(=O)NCCCCCCBr", "G"),
    ("CCCCCCCCCCCNC=O", "G"),
    ("O=CNCCCCCCCCCCCBr", "G"),
    ("C=CCCCCCCCCCNC=O", "G"),
]

Now consider the entry below.
Missing value: Performance (1 yr immersed) Hard fouling, hard fouling, entry O=CNCCCCCCCCCC(Br)CBr (centres unmarked) . Fill in?
G
